System: ER/IL-6
Assay: Endothelial Cell ER/IL-6 Assay, IL-6 promoter luciferase (Table 2)
Format: cell-based, human
Settings: Homo sapiens, HAECT1; ERα infected HAECT-1 cells, IL-1β; read-out: IL6 luc IC50
Would you mind sorting the entries by IC50 according to these classes? Low = under 20 nM, Mid = from 20 nM up to 300 nM, High = 300 nM and over

Prompt: Please let me know in which category the item COc1ccccc1[C@H](c1cccc2ccccc12)[C@@](C)(C#N)C(=O)N1CCC(C2CCCC(C(F)(F)F)C2)CC1 (some centres unmarked) [Example 139] belongs.
Response: Mid

Prompt: Now the same for COC(=O)[C@@](C#N)(Cc1ccccn1)[C@H](c1ccccc1OC)c1cccc2ccccc12 (relative stereo) [Example 143]
Response: Mid

Prompt: Next compound up: COc1ccccc1[C@H](c1cccc2ccccc12)[C@@](C)(C#N)C(=O)N1CCC(c2c[nH]c3ccccc23)CC1 [Example 187]
Response: Mid

Prompt: What about COc1ccccc1[C@H](c1cccc2ccccc12)[C@@](C)(C#N)C(=O)N1CCC(N2C(=O)CCc3ccccc32)CC1 [Example 134] ?
Response: High

Prompt: What would you report for COc1ccccc1[C@H](c1cccc2ccccc12)[C@@](C)(C#N)C(=O)N1CC=C(c2ccc(F)cc2)CC1 [Example 137] ?
Response: Mid

Prompt: And what about the compound COc1ccccc1[C@H](c1cccc2ccccc12)[C@@](C)(C#N)C(=O)N1CCN(c2ccncc2)CC1 [Example 133] ?
Response: Mid

Prompt: Note, next up: COc1ccccc1[C@H](c1cccc2ccccc12)[C@@](C)(C#N)C(=O)N1CCC(O)(c2ccc(Cl)cc2)CC1 [Example 186]
Response: High

Prompt: And then COc1ccccc1[C@H](c1cccc2ccccc12)[C@@](C)(C#N)C(=O)N1CCC(N2CCOCC2)CC1 [Example 203] , what is it?
Response: Low

Prompt: Next compound: COC(=O)[C@@](C#N)(CCN(C)C)[C@H](c1ccccc1OC)c1cccc2ccccc12 (relative stereo) [Example 157]
Response: Mid

Prompt: Similarly, COC(=O)[C@@](C#N)(COCc1ccccc1)[C@H](c1ccccc1OC)c1cccc2ccccc12 (relative stereo) [Example 146] ?
Response: Low

Prompt: Now the same for COc1ccccc1[C@H](c1cccc2ccccc12)[C@@](C)(C#N)C(=O)N1CCc2[nH]c3ccc(F)cc3c2C1 [Example 189]
Response: High

Prompt: Also check COC(=O)C(C)(C#N)C(c1ccccc1OC)c1ccnc2ccccc12 (centres unmarked) [Example 160]
Response: High

Prompt: Next entry: COc1ccccc1[C@H](c1cccc2ccccc12)[C@@](C)(C#N)C(=O)N1CCC(C(C)=O)(c2ccccc2)CC1 [Example 195]
Response: High

Prompt: # repeat for COC[C@@](C#N)(C(=O)OC)[C@@H](c1ccccc1OC)c1cccc2ccccc12 [Example 151]
Response: Low

* * *

Field: melting point. Provide a value for each of the molecules that follow.
Express the result in °C but write the number alone.

Prompt: Query: melting point; subject: COC[C@](C#N)(C(=O)N1CCN(c2ncccn2)CC1)[C@H](c1ccccc1OC)c1cccc2ccccc12
Response: 140

Prompt: Please do the same for COC[C@@](C#N)(C(=O)N1CCN(c2cnccn2)CC1)[C@@H](c1ccccc1OC)c1cccc2ccccc12 as well.
Response: 150

Prompt: Try this molecule too: COc1ccccc1C(c1cccc2ccccc12)C(C#N)(COCc1ccccc1)C(=O)N1CCN(CCN2CCOCC2)CC1 (stereo not shown)
Response: 162
